# Target desc: ZIKV envelope glycoprotein (E) of strain MR766 (Uganda 1947) (Zika virus, UniProt Q32ZE1 291-790)
# Sequence (Q32ZE1 291-790 limits assumed): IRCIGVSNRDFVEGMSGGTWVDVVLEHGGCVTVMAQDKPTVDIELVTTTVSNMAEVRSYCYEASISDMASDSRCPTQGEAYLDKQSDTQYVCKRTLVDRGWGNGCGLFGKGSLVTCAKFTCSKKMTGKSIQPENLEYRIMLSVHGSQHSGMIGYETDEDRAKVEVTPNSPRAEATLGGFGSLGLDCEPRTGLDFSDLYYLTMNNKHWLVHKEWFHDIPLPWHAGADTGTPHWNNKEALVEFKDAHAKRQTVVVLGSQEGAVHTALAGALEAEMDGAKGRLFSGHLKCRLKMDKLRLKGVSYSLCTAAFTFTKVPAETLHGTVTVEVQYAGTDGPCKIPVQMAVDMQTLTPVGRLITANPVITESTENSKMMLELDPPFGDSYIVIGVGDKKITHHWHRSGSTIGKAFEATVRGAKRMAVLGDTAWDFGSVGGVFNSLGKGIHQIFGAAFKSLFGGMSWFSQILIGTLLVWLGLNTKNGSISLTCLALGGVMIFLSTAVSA
# Measurement notes: cell-based or functional assay
Attribute: neutralization IC50, Vero cells

binder="H4H25617P (antibody, V domains shown) VH: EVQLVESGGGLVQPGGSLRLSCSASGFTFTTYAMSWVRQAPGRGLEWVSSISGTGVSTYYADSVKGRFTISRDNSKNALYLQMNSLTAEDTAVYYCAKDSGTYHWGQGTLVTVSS VL: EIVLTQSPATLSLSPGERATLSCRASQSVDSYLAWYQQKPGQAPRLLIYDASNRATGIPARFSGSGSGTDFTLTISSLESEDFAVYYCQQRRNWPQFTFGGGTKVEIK" observed="0.166 nM"
binder="H4H25602P (antibody, V domains shown) VH: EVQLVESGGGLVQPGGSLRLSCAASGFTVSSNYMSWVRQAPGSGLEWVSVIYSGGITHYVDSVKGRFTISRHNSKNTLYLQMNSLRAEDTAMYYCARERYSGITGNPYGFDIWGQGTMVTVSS VL: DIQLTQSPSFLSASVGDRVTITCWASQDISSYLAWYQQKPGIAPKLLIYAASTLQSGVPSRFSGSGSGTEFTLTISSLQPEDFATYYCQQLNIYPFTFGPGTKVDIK" observed="0.0531 nM"

Next item in the queue.
Would you mind telling me what neutralization IC50, Vero cells value was observed for H4H25598P (antibody, V domains shown) VH: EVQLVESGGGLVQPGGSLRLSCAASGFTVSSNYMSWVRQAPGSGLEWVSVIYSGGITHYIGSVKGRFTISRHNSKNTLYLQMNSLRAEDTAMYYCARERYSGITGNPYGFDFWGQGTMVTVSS VL: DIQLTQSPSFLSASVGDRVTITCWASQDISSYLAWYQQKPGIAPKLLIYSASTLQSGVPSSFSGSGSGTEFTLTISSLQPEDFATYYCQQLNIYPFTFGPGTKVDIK ?
0.0545 nM

This collection of values is drawn from patent US20180016324A1.
